Hello, the source for this data is ChEMBL document CHEMBL1156597, in case you need it.

- EXPERIMENTAL PROTOCOL: Cytotoxicity against human IGROV-ET cells after 48 hrs by SRB assay
- Type: functional
- RECORDED CONDITIONS: read-out: LC50 (the source's name)
MEASURED PROPERTY: CC50 (nM)
Number in nM, nothing else.

C/C=C1\NC(=O)[C@H](Cc2ccccc2)NC(=O)[C@@H](C(C)C)NC(=O)[C@@H]([C@H](C)CC)NC(=O)[C@H](NC(=O)[C@H](NC(=O)[C@H](CCCNC(=O)CCC2CCCCC2)NC(=O)[C@H]2CCCN2C(=O)[C@H](NC(=O)[C@@H](NC(=O)[C@@H](NC(=O)[C@H](NC(=O)CCCC(C)C)C(C)C)[C@@H](C)O)C(C)C)C(C)C)[C@H](C)CC)[C@H](C)OC(=O)[C@H](C(C)C)NC1=O :: 547
CC[C@@H](C)[C@@H](NC(=O)[C@H](CCCN)NC(=O)[C@H]1CCCN1C(=O)[C@H](NC(=O)[C@@H](NC(=O)[C@@H](NC(=O)[C@H](NC(=O)CCCC(C)C)C(C)C)[C@@H](C)O)C(C)C)C(C)C)C(=O)N[C@H]1C(=O)N[C@H]([C@H](C)CC)C(=O)N[C@H](C(C)C)C(=O)N[C@@H](Cc2ccccc2)C(=O)NCC(=O)N[C@@H](C(C)C)C(=O)O[C@H]1C :: 308

Ask: Entry C/C=C1\NC(=O)[C@H](Cc2ccccc2)NC(=O)[C@@H](C(C)C)NC(=O)[C@@H]([C@H](C)CC)NC(=O)[C@H](NC(=O)[C@H](NC(=O)[C@H](CCCN)NC(=O)[C@H]2CCCN2C(=O)[C@H](NC(=O)[C@@H](NC(=O)[C@@H](NC(=O)[C@@H](C)NC(=O)CCCC(C)C)[C@@H](C)O)C(C)C)C(C)C)[C@H](C)CC)[C@H](C)OC(=O)[C@H](C(C)C)NC1=O has what CC50?
Result: 714
